Just for reference, PubChem BioAssay is where these values come from.

System: Aerobactin synthetase IucA (Klebsiella pneumoniae hvKP1)
Assay: Biochemical IucA enzyme inhibition primary screen of the Spectrum library (AID 1346200);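 further: 100% = wells without compound and 0% = wells lacking enzyme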
Conditions: malachite green pyrophosphate, A620, at 8 µM, hits give low values
Listing: activity remaining of selected molecules
// note: answer is a bare numeric in %

Recorded results for 4 molecules are shown here.
molecule	activity remaining, %
C[N+]1(C)C[C@H](O)[C@H](C(=O)[O-])C1	94.3
CSc1nc(NC(C)C)nc(NC(C)C)n1	98.6
COc1cc(OC)c2c(=O)c(-c3ccc4c(c3)OCO4)coc2c1	98
CC1(C)C(=O)C=C[C@@]2(C)C1=C(O)C(=O)[C@]1(C)C2CC[C@@]2(C)[C@H](c3ccoc3)C[C@H]3O[C@]321 (stereo not given in full)	116

Entry under review: C[C@H]1c2cccc(O)c2C(O)=C2C(=O)[C@]3(O)C(O)=C(C(N)=O)C(=O)[C@@H](N(C)C)[C@@H]3[C@@H](O)[C@@H]21 . Reported activity remaining?
93.8

Entry under review: CCCc1ncc(C[n+]2ccccc2C)c(N)n1 . Reported activity remaining?
111

Entry under review: O=C(O)c1cc(=O)c2ccc(Cl)cc2[nH]1 . Reported activity remaining?
94.8

Entry under review: C[C@H](CCC(=O)O)[C@H]1CCC2C3C(CC[C@@]21C)[C@@]1(C)CC[C@@H](O)C[C@H]1C[C@@H]3O (stereo not given in full) . Reported activity remaining?
105

Entry under review: COc1ccc2c(c1)OC/C(=C\c1ccc(OC)c(O)c1)C2=O . Reported activity remaining?
120

Entry under review: C=CC1=C(C(=O)O)N2C(=O)[C@@H](NC(=O)/C(=N\O)c3csc(N)n3)[C@H]2SC1 (stereo in doubt) . Reported activity remaining?
103
